System: T. gondii tachyzoites (RH strain)
Assay: Toxoplasma gondii testing assay
Format: cell-based
Settings: Toxoplasma gondii; T. gondii parasites cultivated in Vero cells
pIC50: −log10 of the molar value.
Let's look at some compounds and their measured pIC50.

MOLECULE_SMILES	pIC50
COc1ccc(C(=O)/C=C/c2cccc([N+](=O)[O-])c2)c(OC)c1	5.66
COc1cc(OC)c(C(=O)/C=C/c2c3ccccc3cc3ccccc23)c(OC)c1	5.24
COc1ccccc1C(=O)/C=C/c1c2ccccc2cc2ccccc12	5.01
COc1cc(OC)c(C(=O)/C=C/c2cccc(S(F)(F)(F)(F)F)c2)c(OC)c1	6.38
COc1ccc(C(=O)/C=C/c2c3ccccc3cc3ccccc23)c(OC)c1	5.12

* * *

System: L. major amastigotes
Assay: Leishmania major testing assay, amastigotes
Type: cell-based
Conditions: Leishmania major
Assign labels as follows, please: 1 for IC50 below 20 µM; -1 for IC50 equal to or exceeding 20 µM.

MOLECULE_SMILES	LABEL_VALUE
COc1ccc(C(=O)/C=C/c2cccc([N+](=O)[O-])c2)c(OC)c1	-1
COc1cc(OC)c(C(=O)/C=C/c2c3ccccc3cc3ccccc23)c(OC)c1	1
COc1ccccc1C(=O)/C=C/c1c2ccccc2cc2ccccc12	-1
COc1ccc(C(=O)/C=C/c2c3ccccc3cc3ccccc23)c(OC)c1	-1
